Values from the nanobody polyreactivity screen of Harvey et al. (2022)

Experiment: yeast display, Sf9 membrane polyspecificity reagent, FACS + sequencing; frameworks hold sequencing errors
METRIC: polyreactivity (PSR sort gate)

For orientation, consider the following solved cases.
# ENTRY SEQUENCE, polyreactivity (PSR sort gate)
measured = [
    ("QVQLVESGGGLVQAGGSLRLTCAASGSIFQPNMGWNRHAPGKERELVASITTGTTKYADSVKGRFTISRDNAKNTVYLQMNSLKPEDTAVYYCAADLQATVYLIFGYWGQGTQVTVSS", "low polyreactivity"),
    ("QVQLVESGGGLVQAGGRLRLSCAASGFIFRPYAMGWYRQAPGKERELVPTISYRGGSTDYADSVKGRFTISRDNAKNTVYLQMNSLKPEDTAVYYCNAGYNRGYYYPVFAFFPYEYWGQGTQVTVSS", "low polyreactivity"),
    ("QVQLVESGGGLVQAGGSLRLTCAASGYTLGYNAMGWYRKAPGKEMELVAAITIDGSTTYADSVKGRFTISRDNAKNTVYLLMNSLKPEDTAVYYCNAEGFTSDPYDSDYWGKGTQVTVSS", "low polyreactivity"),
    ("QVQLVESGGGLVQAGGSLRLSCAASGFIFDRNTMGWYRQAPGKERELVATISSTGTTNYADSVKGRFTISRDNAKNTVYLQMNSLKPEDTAVYYCNAYPRWRYVSYYRSYRYDYWGQGTQVTVSS", "high polyreactivity"),
    ("QVQLVESGGGLVQAGGSLRLSSAASGSIFRGYAMGWYRQAPEKERELVAAISRRGGSTYYADSVKGRFTISRDNAKNTVYLQMNSLKPEDTAVYYCAKDGTGAGTYDYWGLGTQVTVSS", "low polyreactivity"),
    ("QVQLVESGGGLVQAGGRLRLICAASGRTSRIYAMGWYRQAPGKWELVAAISGSGSRTYYADSVKGRFTISRDNAKNTVYFQMNSLKPEDTAVSYCNARYWYRHHPPEFDYWGQGTQVTVSS", "high polyreactivity"),
    ("QVQLVESGGGLVQAGGSLRLSCASSGRTFALYAMGWYRKAPGKERELVAGITFRGGSTYYADSVKGRFTISRDNAKKTVYLQMISQKPEDNAVYYCAAERWRWYYSWNMDYWGQCTQVTVSS", "high polyreactivity"),
    ("QVQLVETGGGLVQAGGSLRLSCAASGCIITYYAMGWYRPAPGKERELVAAITASGSRTYYADSVKGRFTISRDNAKNTVYLQMNSLKPEDTAVYDCASDNWQWYPSTWYDYWGQGTQVTVSS", "high polyreactivity"),
]

INPUT: Recorded polyreactivity (PSR sort gate) for QVQLVESGGGLVQAGGSLRLSCAASGNTYSYNAMGWYRQAPGKEREFVASISRRGGRTNYADSVKGRFTISRDNAKYTVYLQMNSLKPEDTAVYYCAATTVPLGDYWGQGTQVTVST , please?
OUTPUT: high polyreactivity

INPUT: Recorded polyreactivity (PSR sort gate) for QVQLVESGGGLVQAGGSLRLSCAASGSIFGGNAMGWYRQAPGKERELVAAITDGGNTNYADSVKGRFTISRDNAKNTVYLQINSLKPEDTAVYYCAARIPGTYGGRYGYDYWGQGTQVTVSS , please?
OUTPUT: low polyreactivity

INPUT: Recorded polyreactivity (PSR sort gate) for QVQLVESGGGLVQAGGSLRLSCAASGRNFYYNAMGWYRQAPGKEREFVAGISYGGTTTYYADSVKGRFTISRDNAKNTVYLLMNSLKPEDTAVYYCAAGYTWRQSWYPFDYWGQGTQVTVSS , please?
OUTPUT: high polyreactivity
